- method: LD50 in mice, oral (Lichtfield and Wilcoxon method)
- Type: in vivo
observed property: LD50

Q) If you can, please state the reported LD50 value of CC(C)NCC(O)COc1ccc(-c2nc3ccccc3[nH]2)cc1 (centres unmarked) [Compound 8] .
A) > 2248 mg/kg

Q) If you can, please state the reported LD50 value of CC(C)NCC(O)COc1ccc(-c2nc3ccccc3[nH]2)cc1 (centres unmarked) [Compound 11] .
A) 1494 mg/kg

Q) If you can, please state the reported LD50 value of CC(C)NCC(O)COc1ccc(-c2nc3ccccc3[nH]2)cc1 (centres unmarked) [Compound 10] .
A) 1960 mg/kg

Q) If you can, please state the reported LD50 value of CC(C)NCC(O)COc1ccc(-c2nc3ccccc3[nH]2)cc1 (centres unmarked) [Compound 12] .
A) 1950 mg/kg

Q) If you can, please state the reported LD50 value of CC(C)NCC(O)COc1ccc(-c2nc3ccccc3[nH]2)cc1 (centres unmarked) [Compound 9] .
A) 2620 mg/kg

###

- System: β1 cardiac receptors versus β2 tracheal receptors
- method: Cardioselectivity (auricles versus trachea)
- Set-up: species or system guinea pig
- condition parameters: from difference of pA2 on auricles and trachea
observed property: times more active on β cardiac receptors than on β2 receptors

- COCCc1ccc(OCC(O)CNC(C)C)cc1 (stereo not shown) [Metroprolol, reference compound]: 65 times
- CC(C)NCC(O)COc1ccc(CC(N)=O)cc1 (stereo not shown) [Atenolol, reference compound]: 50 times

// moving on: another record for times more active on β cardiac receptors than on β2 receptors
Q) If you can, please state the reported times more active on β cardiac receptors than on β2 receptors value of CC(C)NCC(O)COc1ccc(-c2nc3ccccc3[nH]2)cc1 (stereo not shown) .
A) 2140 times

###

Catalogue of compounds with associated LD50
- method: LD50 in mice, oral (Lichtfield and Wilcoxon method)
- Assay type: in vivo
- condition parameters: mouse, in vivo, po, read-out: LD50
Counter-ions that a name gives are not always drawn.
// return numeric value only (unit: mg/kg, not printed)

* CC(C)(C)NCC(O)COc1ccc(-c2nc3ccccc3[nH]2)cc1 (centres unmarked) [Compound 4] | 1420

Q) If you can, please state the reported LD50 value of CC(C)NCC(O)COc1ccc(-c2nc3cc(Cl)ccc3[nH]2)cc1 (centres unmarked) [Compound 16] .
A) 1100

Q) If you can, please state the reported LD50 value of Cc1cc2nc(-c3ccc(OCC(O)CNC(C)C)cc3)[nH]c2cc1C (centres unmarked) [Compound 15] .
A) 1450

Q) If you can, please state the reported LD50 value of Cc1ccc2[nH]c(-c3ccc(OCC(O)CNC(C)C)cc3)nc2c1 (centres unmarked) [Compound 14, (hydrochloride)] .
A) 1450

Q) If you can, please state the reported LD50 value of CC(C)NCC(O)COc1ccc(-c2nc3ccccc3[nH]2)cc1 (centres unmarked) [Compound 1] .
A) 2300

###

- method: LD50 in mice, oral (Lichtfield and Wilcoxon method)
- Type: in vivo
- condition parameters: mouse, in vivo, po, read-out: LD50
- Description: LD50 were determined according to the Lichtfield and Wilcoxon method (J. Pharmacol. Exp. Ther. 96, 99, 1949) and expressed in mg/kg. The products were administered to mice orally.
observed property: LD50

Past entries and their recorded results:
* OC(CNCCCCc1ccccc1)COc1ccc(-c2nc3ccccc3[nH]2)cc1 (stereo not drawn) [Compound 6] | > 3000 mg/kg
* COc1ccc(CCNCC(O)COc2ccc(-c3nc4ccccc4[nH]3)cc2)cc1OC (stereo not drawn) [Compound 5] | > 3000 mg/kg
* CC(CCc1ccc2c(c1)OCO2)NCC(O)COc1ccc(-c2nc3ccccc3[nH]2)cc1 (stereo not drawn) [Compound 13] | > 1000 mg/kg

Q) If you can, please state the reported LD50 value of CCCCCCCCNCC(O)COc1ccc(-c2nc3ccccc3[nH]2)cc1 (stereo not drawn) [Compound 2] .
A) > 300 mg/kg

Q) If you can, please state the reported LD50 value of CC(CCc1ccccc1)NCC(O)COc1ccc(-c2nc3ccccc3[nH]2)cc1 (stereo not drawn) [Compound 7] .
A) > 3000 mg/kg

Q) If you can, please state the reported LD50 value of OC(CNCCOc1ccccc1)COc1ccc(-c2nc3ccccc3[nH]2)cc1 (stereo not drawn) [Compound 3] .
A) > 3000 mg/kg
